Below is a list of entries, each paired with its recorded IC50 value.
biological target: PRMT5-MEP50 (Homo sapiens, UniProt O14744); assay: PRMT5 assay (3H-SAM flashplate); details: Table 3; PRMT5 biochemical assay
Sequence (O14744 whole entry): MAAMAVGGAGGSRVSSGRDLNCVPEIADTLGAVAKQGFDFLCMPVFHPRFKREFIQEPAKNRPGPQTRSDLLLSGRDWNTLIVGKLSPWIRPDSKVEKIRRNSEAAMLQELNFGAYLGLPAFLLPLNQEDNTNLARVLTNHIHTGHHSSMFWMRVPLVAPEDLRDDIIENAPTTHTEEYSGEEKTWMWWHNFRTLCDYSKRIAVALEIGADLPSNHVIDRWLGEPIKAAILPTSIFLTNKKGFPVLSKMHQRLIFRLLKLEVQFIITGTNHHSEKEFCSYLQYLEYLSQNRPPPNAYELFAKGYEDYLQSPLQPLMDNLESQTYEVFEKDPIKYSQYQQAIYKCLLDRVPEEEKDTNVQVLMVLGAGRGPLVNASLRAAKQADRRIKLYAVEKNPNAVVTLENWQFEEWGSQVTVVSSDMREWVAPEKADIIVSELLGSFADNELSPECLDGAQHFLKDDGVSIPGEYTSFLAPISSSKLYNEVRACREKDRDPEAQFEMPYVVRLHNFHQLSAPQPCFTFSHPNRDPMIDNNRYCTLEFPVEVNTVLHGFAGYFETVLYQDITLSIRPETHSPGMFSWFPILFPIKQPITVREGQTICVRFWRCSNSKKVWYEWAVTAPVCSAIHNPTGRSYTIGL
Sequence (Q9BQA1 whole entry partner): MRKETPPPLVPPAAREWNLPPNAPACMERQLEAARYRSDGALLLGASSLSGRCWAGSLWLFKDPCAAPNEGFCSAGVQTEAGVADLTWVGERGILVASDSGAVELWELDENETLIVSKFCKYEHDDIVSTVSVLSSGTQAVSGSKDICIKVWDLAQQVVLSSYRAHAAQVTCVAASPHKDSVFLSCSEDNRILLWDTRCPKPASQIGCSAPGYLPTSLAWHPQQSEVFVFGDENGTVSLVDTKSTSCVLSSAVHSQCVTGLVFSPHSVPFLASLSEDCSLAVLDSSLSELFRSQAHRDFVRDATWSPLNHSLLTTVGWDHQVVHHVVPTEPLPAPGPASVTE

# count of solved cases: 2
| Compound | IC50 |
| --- | --- |
| CNc1ccc2ccc(NC(=O)[C@H]3O[C@@H](n4cc(-c5ccn(C)n5)c5c(N)ncnc54)[C@H](O)[C@@H]3O)cc2n1 [Compound I-32] | < 10 nM |
| COCCCN(C(=O)[C@H]1O[C@@H](n2cc(-c3ccn(C)n3)c3c(N)ncnc32)[C@H](O)[C@@H]1O)C1CCNCC1 [Compound I-7] | 10 to 100 nM |

We now examine a further compound.
Input COCCN(C(=O)[C@H]1O[C@@H](n2cc(-c3ccn(C)n3)c3c(N)ncnc32)[C@H](O)[C@@H]1O)c1ccc2ccc(N3CCC3)nc2c1 [Compound I-11] . Output IC50: 100 to 1000 nM

###

Target: PRMT5-MEP50 (Homo sapiens)
Test: PRMT5 assay (3H-SAM flashplate)
Details: Table 4; PRMT5 biochemical assay
Experimental: Assays were performed in a 25 μl-volume in 384-well V-bottom polypropylene microplates (Greiner Bio-One, cat. No. 781280) at ambient temperature. Optimized 1× assay buffer was 20 mM Tris-HCl pH 8.0, 1 mM DTT, 0.01% Tween, 0.01%. […] Following two washing cycles with 0.1% Tween-20, the plates were sealed and read on a TopCount (PerkinElmer, Waltham, MA) plate-based scintillation counter. […]
pIC50: −log10 of the molar value.
Recorded endpoint: pIC50

| Molecule | Endpoint value |
| --- | --- |
| CNc1ccc2ccc(NC(=O)[C@H]3O[C@@H](n4cc(-c5ccn(C)n5)c5c(N)ncnc54)[C@@H](F)[C@@H]3O)cc2n1 [Compound I-61] | 7.00 to 8.00 |

pIC50 reported for this molecule Cn1ccc(-c2cn([C@@H]3O[C@H](C(=O)NCC4(O)CCNCC4)[C@@H](O)[C@H]3O)c3ncnc(N)c23)n1 [Compound I-198] : 7.00 to 8.00

Sure, the documented pIC50 for CN(C)CCCN(C(=O)[C@H]1O[C@@H](n2cc(-c3ccn(C)n3)c3c(N)ncnc32)[C@H](O)[C@@H]1O)C1CCN(C)CC1 [Compound I-51] is 6.00 to 7.00

Lab note: measured pIC50 of Cn1ccc(-c2cn([C@@H]3O[C@H](C(=O)NCc4cc(F)cc(F)c4)[C@@H](O)[C@H]3O)c3ncnc(N)c23)n1 [Compound I-191] was 6.00 to 7.00

Memo: CC(=O)NCCCN(C(=O)[C@H]1O[C@@H](n2cc(-c3ccn(C)n3)c3c(N)ncnc32)[C@H](O)[C@@H]1O)C1CCN(C)CC1 [Compound I-235] , reported pIC50: 6.00 to 7.00

Sample Cn1ccc(-c2cn([C@@H]3O[C@H](C(=O)N[C@H]4C[C@H](O)C4)[C@@H](O)[C@H]3O)c3ncnc(N)c23)n1 [Compound I-215] ; pIC50 observed: ≤ 6.00

###

target: FLT3-ITD (Homo sapiens, UniProt P36888); test: FLT3-ITD Caliper assay; format: biochemical; details: Table 4; read-out: FLT3-ITD Calipher assay IC50
Recorded endpoint: IC50

| Item smiles | IC50 |
| --- | --- |
| CN(C)c1ccnc(NC(=O)[C@H]2O[C@@H](n3cc(-c4ccn(C)n4)c4c(N)ncnc43)[C@H](O)[C@@H]2O)c1 | ≥ 1 µM |
| N#Cc1cn([C@@H]2O[C@H](C(=O)Nc3ccc4ccc(N5CCC5)nc4c3)[C@@H](O)[C@H]2O)c2ncnc(N)c12 | 0.1 to 1 µM |

Next compound, please.
Query Nc1ncnc2c1ccn2[C@@H]1O[C@H](C(=O)Nc2ccc3ccc(N4CCC4)nc3c2)[C@@H](O)[C@@H]1F yields IC50 of ≥ 1 µM
